# system-name: T1, AP1-AA
# T1 chain: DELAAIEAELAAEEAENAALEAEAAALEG
# assay-summary: two-hybrid library CCmax;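 note: natural log of median RNA to DNA barcode read ratio; higher means stronger binding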
Item-by-item account of interaction score
Enter the number alone.

| binder | parameter-measured | value-reported |
| --- | --- | --- |
| KRLKQLRKRKQAKRWEEAQIEKELQAIEK [4H_APH2] | interaction score | -1.22 |

Recorded interaction score of DELAAIEAELAAEEAENAALEAEAAALEG [AP1-AA] , please.
-1.8

Now consider KRAKQLRKRLQALEWQLAQIRKELQAAEK [4H_APH3] and answer again.
-1.7

# iterate: KELQAIEKQLAQLQWKAQARKKKLAQLKK [4H_APH]
-1.47
